Values from FireProtDB (doi:10.1006/jmbi.1997.1365)

B1: Lysozyme C, P61626 (parent)
chain: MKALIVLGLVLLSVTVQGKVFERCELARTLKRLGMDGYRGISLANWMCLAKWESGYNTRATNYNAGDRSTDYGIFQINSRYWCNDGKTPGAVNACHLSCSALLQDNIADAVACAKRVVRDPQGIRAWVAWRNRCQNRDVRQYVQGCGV

Variants of: B1
Conditions: Homo sapiens; pH 2.7; Thermal; DSC; glycine 0.05 M; reversible: yes; structure 1LZ1; whole UniProt chain shown
In this section we review reported heat capacity change of unfolding values for a set of variants.
Measured Metric: heat capacity change of unfolding

[[record]]
mutant_designation = "I77A"
measured_metric = "heat capacity change of unfolding"
reported = "1.46 kcal/mol/K"

[[record]]
mutant_designation = "I124A"
measured_metric = "heat capacity change of unfolding"
reported = "1.34 kcal/mol/K"

[[record]]
mutant_designation = "I41A"
measured_metric = "heat capacity change of unfolding"
reported = "1.2 kcal/mol/K"

[[record]]
mutant_designation = "I107A"
measured_metric = "heat capacity change of unfolding"
reported = "1.65 kcal/mol/K"

